FYI, the data here is from patent US8765941B2.

System: LuHCV cells
test name: Evaluation of cell growth suppression using LuHCV cells (percentage of viable cells, reagent SF)
Type: cell-based, human
conditions: 20 μM, 48 hours, DMSO = 100%
Hi! Just check whether viability (% control) is below 90 % control. Below gives T, equal or above gives F.

These solved cases illustrate the format of a correct answer.
[
  {
    "compound": "O=C(NC(=S)Nc1cc(C(F)(F)F)ccc1N1CCCCCCC1)c1ccncc1 [Compound 7]",
    "assay target": "LuHCV cells",
    "class assignment": "T"
  },
  {
    "compound": "O=C(NC(=S)Nc1cc(C(F)(F)F)ccc1N1CCCCCCC1)c1ccc(F)cc1 [Compound 13]",
    "assay target": "LuHCV cells",
    "class assignment": "F"
  }
]

State whether 90 % control exceeds viability (% control) recorded for O=C(NC(=S)Nc1cc(C(F)(F)F)ccc1N1CCCCCCC1)c1ccccc1 [Compound 14] .
F

State whether 90 % control exceeds viability (% control) recorded for O=C(NC(=S)Nc1cc(F)ccc1N1CCCCCCC1)c1cccnc1 [Compound 9] .
T

State whether 90 % control exceeds viability (% control) recorded for O=C(NC(=S)Nc1cc(C(F)(F)F)ccc1N1CCCCC1)c1cccnc1 [Compound 3] .
F

State whether 90 % control exceeds viability (% control) recorded for O=C(Nc1cc(C(F)(F)F)ccc1N1CCCCCCCC1)c1ccncc1 [Compound 20] .
F

State whether 90 % control exceeds viability (% control) recorded for FC(F)(F)c1ccc(N2CC[C@H]3CCCC[C@@H]3C2)c(NC(=S)c2ccncc2)c1 (relative stereo) [Compound 22] .
F

State whether 90 % control exceeds viability (% control) recorded for O=C(NC(=S)Nc1cc(C(F)(F)F)ccc1N1CCCCCCCC1)c1ccccc1 [Compound 24] .
F

State whether 90 % control exceeds viability (% control) recorded for O=C(NC(=S)Nc1cc(C(F)(F)F)ccc1N1CC[C@H]2CCCC[C@@H]2C1)c1ccccc1 (relative stereo) [Compound 23] .
F

State whether 90 % control exceeds viability (% control) recorded for O=C(NC(=O)c1cccnc1)Nc1cc(C(F)(F)F)ccc1N1CCCCCCC1 [Compound 8] .
T

State whether 90 % control exceeds viability (% control) recorded for O=C(NC(=S)Nc1cc(C(F)(F)F)ccc1F)c1cccnc1 [Compound 16] .
T

* * *

viability (% control) reference
Tested on: LuHCV cells
test name: Evaluation of cell growth suppression using LuHCV cells (percentage of viable cells, reagent SF)
Type: cell-based, human
conditions: 10 μM, 48 hours, DMSO = 100%

For the compound shown here, O=C(Nc1cc(C(F)(F)F)ccc1N1CCC[C@H]2CCCC[C@@H]21)c1ccncc1 (relative stereo) , give the reported viability (% control).
99.02 % control

For the compound shown here, Cc1ccc(C(=O)NC(=S)Nc2cc(C(F)(F)F)ccc2N2CCCCCCC2)cn1 , give the reported viability (% control).
96.19 % control

For the compound shown here, FC(F)(F)c1ccc(N2CCC[C@H]3CCCC[C@@H]32)c(NC(=S)c2ccncc2)c1 (relative stereo) , give the reported viability (% control).
94.44 % control

For the compound shown here, O=C(NC(=S)Nc1cc(C(F)(F)F)ccc1N1CCCCCCCC1)c1ccccc1 , give the reported viability (% control).
108.20 % control

For the compound shown here, O=C(NC(=S)Nc1cc(C(F)(F)F)ccc1N1CCCCCCC1)c1ccoc1 , give the reported viability (% control).
112.89 % control

For the compound shown here, O=C(NC(=S)Nc1cc(C(F)(F)F)ccc1N1CCCCCCC1)c1ccccc1 , give the reported viability (% control).
103.81 % control

For the compound shown here, O=C(NC(=S)Nc1cc(C(F)(F)F)ccc1N1CC[C@H]2CCCC[C@@H]2C1)c1ccccc1 (relative stereo) , give the reported viability (% control).
106.72 % control

* * *

Tested on: LuHCV cells
test name: Evaluation of cell growth suppression using LuHCV cells (percentage of viable cells, reagent SF)
Format: cell-based, human
conditions: 20 μM, 48 hours, DMSO = 100%
attribute measured: viability (% control)
Value expressed in % control; do not type the unit.

Solved entries (count: 5):
[
  {
    "compound": "COc1ccc(C(=O)NC(=S)Nc2cc(C(F)(F)F)ccc2N2CCCCCCC2)cc1",
    "unit": "% control",
    "value": 88.78
  },
  {
    "compound": "O=C(Nc1cc(C(F)(F)F)ccc1N1CCC[C@H]2CCCC[C@@H]21)c1ccncc1 (relative stereo)",
    "unit": "% control",
    "value": 91.02
  },
  {
    "compound": "Cc1ccc(C(=O)NC(=S)Nc2cc(C(F)(F)F)ccc2N2CCCCCCC2)cc1",
    "unit": "% control",
    "value": 89.20
  },
  {
    "compound": "Cc1ccc(C(=O)NC(=S)Nc2cc(C(F)(F)F)ccc2N2CCCCCCC2)cn1",
    "unit": "% control",
    "value": 89.38
  },
  {
    "compound": "O=C(NC(=S)Nc1cc(C(F)(F)F)ccc1N1CCCCCC1)c1cccnc1",
    "unit": "% control",
    "value": 89.76
  }
]

For the compound shown here, FC(F)(F)c1ccc(N2CCC[C@H]3CCCC[C@@H]32)c(NC(=S)c2ccncc2)c1 (relative stereo) , give the reported viability (% control).
93.56

For the compound shown here, O=C(NC(=S)Nc1cc(C(F)(F)F)ccc1N1CCCCCCC1)c1ccoc1 , give the reported viability (% control).
108.81

For the compound shown here, COc1ccccc1C(=O)NC(=S)Nc1cc(C(F)(F)F)ccc1N1CCCCCCC1 , give the reported viability (% control).
107.33
